study.system: Serine/threonine-protein kinase PLK1 (Homo sapiens)
assay.overview: qHTS for Inhibitors of PLK1-PDB (polo-like kinase 1 - polo-box domain): Primary Screen; also: potency is read from the fitted curve at half-maximal effect; nearly all actives have a fitted effect of over 65% in size
stated.conditions: Plk1 PBD binding of FITC phosphopeptide, fluorescence polarization
In all, about 360,000 compounds went through this assay and about 10,000 (2.8%) were called active. Not shown: some 4% with an inconclusive outcome. The sample as a whole holds a higher share of actives than the screen did.

| molecule | Potency |
| --- | --- |
| Nc1nc(SCC(=O)NNc2c(Cl)cc(Cl)cc2Cl)n[nH]1 | 18.9 µM (active) |
| O=C(OCc1ccc([N+](=O)[O-])cc1)C1CC(=O)N(Cc2ccccc2Cl)C1 (centres undefined) | 29.9 µM (active) |
| CCOC(=O)N1CCN(CC(=O)c2c(C)[nH]c3ccccc23)CC1 | 3.77 µM (active) |
| O=[N+]([O-])/C=C/c1ccc2c(ccn2Cc2ccccc2)c1 | 3.36 µM (active) |
| O=C(CC1SC(=Nc2ccccc2)N(Cc2ccccn2)C1=O)Nc1cccc(Cl)c1 (centres undefined) | 29.9 µM (active) |
| CCOc1ccc2nc(NCCNC(=O)C(C)(C)C)c(C)cc2c1 | 26.7 µM (active) |
| CN(C)/C=C1/Nc2ccccc2C1=O | 26.7 µM (active) |
| COCCOC(=O)c1sc(=S)n(CCOC)c1N | 23.8 µM (active) |
| CN(C)c1nc(=Nc2cccc(Cl)c2)ss1 | 6.7 µM (active) |
| Cc1sc(NC(=O)C2C3CCC(O3)C2C(=O)O)c(C(=O)OC(C)C)c1-c1ccc(Cl)cc1 (centres undefined) | 7.52 µM (active) |
| COc1ccc(CC(=O)NCc2nnc(SCC(=O)Nc3ncc(C)s3)n2C)cc1 | 13.4 µM (active) |
| Cc1ccc(C(=O)c2c(NC(=O)c3ccccc3)sc(C)c2C)cc1 | 11.9 µM (active) |
| CCC(C)(C)NC(=O)C(c1cccc(OC)c1OC)N(CC(C)C)C(=O)CCC(=O)Nc1cc(C)on1 (centres undefined) | 10.6 µM (active) |
| NC(=O)C1(C(N)=O)OC1c1ccc(Cl)cc1Cl (centres undefined) | 16.8 µM (active) |
| Cc1nn(Cc2ccccc2)c(Cl)c1C(=O)OC1CCOC1=O (centres undefined) | 21.2 µM (active) |
| O=C(COc1ccccc1F)Nc1nc(-c2ccccn2)cs1 | 11.9 µM (active) |
| Cc1ccc(S/C(=N\S(=O)(=O)c2ccc(Cl)cc2)c2ccccc2)cc1 | 2.67 µM (active) |
| O=S(=O)(NCc1ccccc1)c1ccc(S(=O)(=O)N2CCCC2)cc1 | 26.7 µM (active) |
| Clc1ccccc1CSc1nnc(-c2ccco2)c(-c2ccco2)n1 | 13.4 µM (active) |
| CCOC(=O)N1CCN(C(c2cccnc2)c2ccc3cccnc3c2O)CC1 (centres undefined) | 5.97 µM (active) |
| CCN1CCN(C(c2cccnc2)c2cc(Cl)c3cccnc3c2O)CC1 (centres undefined) | 10.6 µM (active) |
| Cc1ccc(S(=O)(=O)N2[C@@H](c3cccc(Cl)c3)C(C(=O)O)=CC[C@H]2c2ccc(Cl)c(Cl)c2)cc1 | 21.2 µM (active) |
| O=C(Cc1ccc(-c2ccccc2)cc1)NC(c1ccccc1)c1ccccc1 | 21.2 µM (active) |
| NC(=O)c1c(NC(=O)CSc2nnc(-c3ccco3)n2N)sc2c1CCCC2 | 15 µM (active) |
| O=C(N/N=C/c1cccc(Br)c1)c1ccc(N2CCCC2=O)cc1 | 26.7 µM (active) |
| Cc1ccc(-n2c(SCC(=O)Nc3ccc4c(c3)OCO4)nnc2-c2ccoc2C)cc1 | 23.8 µM (active) |
| CCn1c(=S)sc2c(=O)n(CC(=O)Nc3ccc(OC)cc3)c(C)nc21 | 33.6 µM (active) |
| N#Cc1c(-c2cccs2)nc(SCC(=O)c2ccc(Br)cc2)[nH]c1=O | 26.7 µM (active) |
| CCn1c(=S)[nH]c2cc(S(=O)(=O)N3CCOCC3)ccc21 | 29.9 µM (active) |
| CCc1ccc(NC(=O)Cn2ncn3c(cc4ccccc43)c2=O)cc1 | 15 µM (active) |
| O=C(O)c1ccc(NC(=O)c2cn(-c3ccccc3)nc2-c2ccc(Cl)cc2)cc1 | 26.7 µM (active) |
| CC(=O)N1Cc2ccccc2CC1C(=O)O (centres undefined) | 2.67 µM (active) |
| O=C1C=C(c2ccc(Cl)cc2)C(=O)N1Nc1ccccc1 | 6.7 µM (active) |
| COC(=O)C1=C(N)Oc2cc(C)[nH]c(=O)c2C1c1ccc(Cl)cc1 (centres undefined) | 23.8 µM (active) |
| O=C(O)CC/C(=C\c1cc2c(cc1Br)OCO2)c1nc2ccccc2s1 | 23.8 µM (active) |
| Oc1c(Cl)cc(Cl)c(Cl)c1Cc1c(O)c(Cl)cc(Cl)c1Cl | 21.2 µM (active) |
| FC(F)(F)C1CCCN(c2nsc3ccccc23)C1 (centres undefined) | 1.5 µM (active) |
| Cc1ccoc1C(=O)Nc1cccc(Oc2ccccc2)c1 | 29.9 µM (active) |
| Cc1nc2c(C(=O)NCc3ccc4c(c3)OCO4)c[nH]n2c(=O)c1Cc1ccccc1F | 21.2 µM (active) |
| Cc1coc2c(O)cc3c(c12)OC1(N2CCCCC2)C(=O)NCCCC31 (centres undefined) | 15 µM (active) |
| COc1ccc(C(C[N+](=O)[O-])n2nc(C)cc2C)cc1 (centres undefined) | 26.7 µM (active) |
| Cc1ccc(-c2ccc(/C=C(\C#N)C(N)=S)o2)c([N+](=O)[O-])c1 | 26.7 µM (active) |
| Cc1cccc(NC(=S)N2CCC(C(=O)c3ccc(F)cc3)CC2)c1 | 2.99 µM (active) |
| CCCC(=O)N1CCc2[nH]c3ccccc3c2C1 | 26.7 µM (active) |
